Cited source: patent US11932658B2

target_entity: PAR4 (Homo sapiens)
Construct: expressed in transfected cells; host or cells: HEK293 PAR4 Clone 1.2A (BMS Arctic ID 383940)
test: PAR4 FLIPR assay (antagonism of agonist peptide-induced calcium mobilization)
Format: cell-based
recorded_metric: IC50 (nM)

Solved entries:
molecule | recorded_metric | recorded_result
COc1cnc2c(-c3nc4c(C)cc5c(c4s3)OCC(COC(=O)Nc3cncc(C)c3)O5)cc(C)cc2n1 (stereo not shown) | IC50 | 3.2
COc1cnc2c(-c3nc4c(F)cc5c(c4s3)OC[C@H](COC(=O)Nc3ccc(C)nc3)O5)cc(C)cc2n1 | IC50 | 2.7

(I) COc1cnc2c(-c3nc4c(C)cc5c(c4s3)OCC(COC(=O)Nc3cccnc3)O5)cc(CO)cc2n1 (stereo not shown)
(II) COc1ccc(NC(=O)OC[C@H]2COc3c(cc(C)c4nc(-c5cc(CO)cc6nc(OC)cnc56)sc34)O2)cn1
Between the two listed entries I and II , which has its IC50 at the higher number? Your answer should be the label of the entry you select.
I

====

target_entity: PAR4 (Homo sapiens, UniProt Q96RI0)
Construct: expressed in transfected cells; host or cells: HEK293 PAR4 Clone 1.2A (BMS Arctic ID 383940)
Sequence (Q96RI0 18-385): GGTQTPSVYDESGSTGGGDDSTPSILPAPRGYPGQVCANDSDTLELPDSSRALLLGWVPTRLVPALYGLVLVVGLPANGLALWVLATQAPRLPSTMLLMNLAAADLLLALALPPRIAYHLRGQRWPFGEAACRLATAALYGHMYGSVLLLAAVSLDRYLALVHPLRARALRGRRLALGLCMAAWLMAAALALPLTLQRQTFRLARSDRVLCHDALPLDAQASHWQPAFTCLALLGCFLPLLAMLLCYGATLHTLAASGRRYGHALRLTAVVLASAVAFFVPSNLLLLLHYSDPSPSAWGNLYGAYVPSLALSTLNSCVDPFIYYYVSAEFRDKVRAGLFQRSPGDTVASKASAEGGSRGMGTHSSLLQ
test: PAR4 FLIPR assay (antagonism of agonist peptide-induced calcium mobilization)
Format: cell-based
recorded_metric: IC50 (nM)

(1) CCOC(=O)NCC1Cc2c(ccc3nc(-c4cc(C)cc5nc(OC)cnc45)sc23)O1 (stereo not shown)
(2) COc1cnc2c(-c3nc4c(Cl)cc5c(c4s3)OC[C@H](COC(=O)Nc3ccc(C#N)nc3)O5)cc(C)cc2n1
For 1 and 2 , which recorded IC50 is lower? Kindly give the label for the entry you pick.
2
(2: 1.4 nM, 1: 22 nM)

====

target_entity: PAR4 (Homo sapiens)
Construct: expressed in transfected cells; host or cells: HEK293 PAR4 Clone 1.2A (BMS Arctic ID 383940)
test: PAR4 FLIPR assay (antagonism of agonist peptide-induced calcium mobilization)
Assay type: cell-based
pIC50: −log10 of the molar value.
recorded_metric: pIC50

Study these solved cases before continuing.
molecule | recorded_result
COc1cnc2c(-c3nc4c(C)cc5c(c4s3)OCC(COC(=O)Nc3cccnc3)O5)cc(Cl)cc2n1 (stereo not shown) | 6.85
COc1cnc2c(-c3nc4c(C(O)C5(C(F)(F)F)CCC5)cc5c(c4s3)OCCO5)cc(C)cc2n1 (single isomer, unassigned) | 8.72
COc1cnc2c(-c3nc4cc(F)c5c(c4s3)OC[C@H](CO)O5)cc(C)cc2n1 | 7.23

(a) COc1cnc2c(-c3nc4ccc5c(c4s3)C[C@@H]([C@@H](C)O)O5)cc(C)cc2n1 (single isomer, unassigned)
(b) COc1cnc2c(-c3nc4c(Cl)cc5c(c4s3)OC[C@H](COC(=O)Nc3ccc(F)nc3)O5)cc(C)cc2n1
Which of these two has the smaller recorded pIC50: a or b ? Your answer should be the label of the entry you select.
a
(a: 8.01, b: 8.54)

(a) COc1cnc2c(-c3nc4ccc5c(c4s3)CC(CNC(=O)OCC(C)C)O5)cc(C)cc2n1 (stereo not shown)
(b) COc1cnc2c(-c3nc4c(F)cc5c(c4s3)OC[C@H](COC(=O)Nc3cccnc3)O5)cc(CO)cc2n1
Hi, I'm comparing two records. Which one has the lower pIC50, a or b ? Respond using the label that marks the chosen record.
b
(b: 7.54, a: 8.51)

====

target_entity: PAR4 (Homo sapiens, UniProt Q96RI0)
Construct: expressed in transfected cells; host or cells: HEK293 PAR4 Clone 1.2A (BMS Arctic ID 383940)
Sequence (Q96RI0 18-385): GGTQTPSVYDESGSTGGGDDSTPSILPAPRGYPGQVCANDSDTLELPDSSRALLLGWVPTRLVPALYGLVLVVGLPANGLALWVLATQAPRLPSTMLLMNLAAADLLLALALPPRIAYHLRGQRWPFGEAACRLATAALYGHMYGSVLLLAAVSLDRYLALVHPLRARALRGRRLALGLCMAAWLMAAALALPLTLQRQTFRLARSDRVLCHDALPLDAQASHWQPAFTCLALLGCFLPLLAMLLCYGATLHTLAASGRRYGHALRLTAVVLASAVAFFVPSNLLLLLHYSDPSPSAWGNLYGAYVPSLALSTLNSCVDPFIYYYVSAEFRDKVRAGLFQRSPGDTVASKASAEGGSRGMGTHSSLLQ
test: PAR4 FLIPR assay (antagonism of agonist peptide-induced calcium mobilization)
Assay type: cell-based
pIC50: −log10 of the molar value.
recorded_metric: pIC50

compound | recorded_metric | recorded_result
COC(=O)NC[C@H]1Cc2c(c(F)cc3nc(-c4cc(C)cc5nc(OC)cnc45)sc23)O1 [Example 218] | pIC50 | 7.82

(I) COc1cnc2c(-c3nc4cc(F)c5c(c4s3)[C@H](C)[C@@H](CO)O5)cc(Cl)cc2c1 [Example 290]
(II) COc1cnc2c(-c3nc4c(C)cc5c(c4s3)OCC(COC(=O)Nc3cncc(Cl)c3)O5)cc(C)cc2n1 (centres unmarked) [Example 132]
Problem: Given the entries I and II , determine which has the lower reported pIC50. Identify your pick by its label.
II

(I) COc1cnc2c(-c3nc4ccc5c(c4s3)OC[C@H](COC(=O)Nc3cnc(C)nc3)O5)cc(C(F)F)cc2c1 [Example 275]
(II) COc1cnc2c(-c3nc4cc(F)c5c(c4s3)[C@H](C)[C@@H](CO)O5)cc(Cl)cc2n1 [Example 253]
Given I and II , report the one with the higher recorded pIC50. Returns: label corresponding to the selected item.
II
(II: 8.57, I: 7.92)

(I) COc1cnc2c(-c3nc4c(C)cc5c(c4s3)OCC(COC(=O)Nc3ccc(N(C)C)nc3)O5)cc(C)cc2n1 (centres unmarked) [Example 116]
(II) COc1cnc2c(-c3nc4c(C)cc5c(c4s3)OC[C@H](COC(=O)Nc3ccc4ncsc4c3)O5)cc(C)cc2n1 [Example 50]
(III) COc1ccc(NC(=O)OC[C@H]2COc3c(cc(Cl)c4oc(-c5cc(C)cc6nc(OC)cnc56)cc34)O2)cn1 [Example 9]
(IV) COc1cnc2c(-c3nc4c(C)cc5c(c4s3)OC[C@H](COC(=O)Nc3cccc(C#N)c3)O5)cc(C)cc2n1 [Example 46]
(V) COc1cnc2c(-c3nc4ccc5c(c4s3)OC[C@H](COC(=O)Nc3ccc(F)nc3)O5)cc(C)cc2n1 [Example 112]
Ordering: ascending pIC50. Use the labels to give the ranking in the order requested.
II, V, I, III, IV
(II: 6.85, V: 8.15, I: 8.47, III: 8.74, IV: 9.00)

====

target_entity: PAR4 (Homo sapiens, UniProt Q96RI0)
Construct: expressed in transfected cells; host or cells: HEK293 PAR4 Clone 1.2A (BMS Arctic ID 383940)
Sequence (Q96RI0 18-385): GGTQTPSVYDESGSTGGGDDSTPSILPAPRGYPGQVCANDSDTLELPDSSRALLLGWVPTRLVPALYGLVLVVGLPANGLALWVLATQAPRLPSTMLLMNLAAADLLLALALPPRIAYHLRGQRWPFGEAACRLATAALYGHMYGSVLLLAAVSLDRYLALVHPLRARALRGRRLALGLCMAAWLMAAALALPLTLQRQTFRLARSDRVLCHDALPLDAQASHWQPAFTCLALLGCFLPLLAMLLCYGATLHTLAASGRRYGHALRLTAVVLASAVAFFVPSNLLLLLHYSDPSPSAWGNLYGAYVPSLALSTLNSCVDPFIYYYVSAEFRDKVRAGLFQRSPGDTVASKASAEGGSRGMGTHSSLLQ
test: PAR4 FLIPR assay (antagonism of agonist peptide-induced calcium mobilization)
Assay type: cell-based
recorded_metric: IC50 (nM)

Reference set (5 entries):
compound | target_entity | IC50 [nM]
COc1cnc2c(-c3nc4cc(F)c5c(c4s3)C[C@H](COC(=O)Nc3ccnc(C)c3)O5)cc(C)cc2n1 | PAR4 (Homo sapiens, UniProt Q96RI0) | 0.6
COc1cnc2c(-c3nc4cc(F)c5c(c4s3)C[C@H](CNC(=O)Oc3ccccc3)O5)cc(C)cc2n1 | PAR4 (Homo sapiens, UniProt Q96RI0) | 38
COc1cnc2c(-c3nc4cc(F)c5c(c4s3)C[C@H](COC(=O)Nc3ccc(-c4ncco4)cc3)O5)cc(C)cc2n1 | PAR4 (Homo sapiens, UniProt Q96RI0) | 2.2
COc1cnc2c(-c3nc4cc(F)c5c(c4s3)C[C@](C)(COC(=O)Nc3cccc(C#N)c3)O5)cc(C)cc2n1 | PAR4 (Homo sapiens, UniProt Q96RI0) | 1.8
COc1ccc(NC(=O)OC[C@H]2COc3c(cc(F)c4nc(-c5cc(C)cc6nc(OC)cnc56)sc34)O2)cn1 | PAR4 (Homo sapiens, UniProt Q96RI0) | 1

(1) COc1cnc2c(-c3nc4c(C)cc5c(c4s3)OCC(COC(=O)Nc3ccc(O)nc3)O5)cc(C)cc2n1 (centres unmarked)
(2) COc1cnc2c(-c3nc4c(C)cc5c(c4s3)OCC(COC(=O)Nc3ccc(-n4cnc(C)n4)nc3)O5)cc(C)cc2n1 (centres unmarked)
(3) Cc1cc(-c2nc3c(F)cc4c(c3s2)OC(CNC(=O)OC(C)(C)C)CO4)c2ncc(OC(F)F)nc2c1 (centres unmarked)
(4) C=Cc1cc(-c2nc3c(C)cc4c(c3s2)OCC(COC(=O)Nc2ccc(OC)nc2)O4)c2ncc(OC)nc2c1 (centres unmarked)
Ordering criterion: IC50; begin with the maximum. Please write the labels in the order that was asked for.
1, 3, 4, 2
(1: 18 nM, 3: 9.4 nM, 4: 6.3 nM, 2: 1.5 nM)

(1) COc1cnc2c(-c3nc4c(C)cc5c(c4s3)OCC(COC(=O)Nc3ccnc(O)c3)O5)cc(C)cc2n1 (centres unmarked)
(2) CCOC(=O)NC[C@@H]1Cc2c(c(F)cc3nc(-c4cc(C)cc5nc(OC)cnc45)sc23)O1
Min IC50? 1 | 2 // output: label of the selected item
2
(2: 1 nM, 1: 12 nM)

(P) COc1cnc2c(-c3nc4ccc5c(c4s3)OC[C@H](COC(=O)Nc3cnc(C)nc3)O5)cc(CF)cc2c1
(Q) COc1cnc2c(-c3nc4c(Cl)cc5c(c4s3)CC(COC(=O)Nc3ccc(C)nc3)O5)cc(C)cc2n1 (centres unmarked)
Would you kindly point out which of P and Q has the smaller IC50 figure? Write down the label of the entry you select.
Q
(Q: 2.6 nM, P: 140 nM)
